- Test system: U2OS
- protocol_text: Incucyte cell viability with U2OS; further: unitless GR value; below 1 slowed growth and below 0 cell loss
- Format: toxicity, cell-based
- experimental_context: human, 12 h, 10 µM, compound concentration 10 uM, replicate number 1
observable: Growth Rate
Output spec: single numeric token, no unit.

// Growth Rate (U2OS) for CCOC(=O)c1cncn1[C@H](C)c1ccccc1 [ETOMIDATE] = 0.97

// Growth Rate (U2OS) for "Cl.Cl.c1ccc2c(-c3cnn4cc(-c5ccc(N6CCNCC6)cc5)cnc34)ccnc2c1" = -0.48

// Growth Rate (U2OS) for "CCN(C)C(=O)c1ccc2c(c1)NC(=O)/C2=C(\NC1CCN(C)CC1)c1ccccc1" = 0.93

###

- Test system: U2OS
- protocol_text: Incucyte cell viability with U2OS; further: unitless GR value; below 1 slowed growth and below 0 cell loss
- Type: toxicity, cell-based
- experimental_context: human, 0 h, 10 µM, compound concentration 10 uM, replicate number 1
For each entry below, report its Growth Rate value.
Output spec: single numeric token, no unit.

Briefly, Growth Rate measured for "O=C(Cc1ccccc1)Nc1nnc(N2C[C@H]3C[C@@H]2CN3c2cccnn2)s1" : 0.34

Briefly, Growth Rate measured for "CCN(C)C(=O)c1ccc2c(c1)NC(=O)/C2=C(\NC1CCN(C)CC1)c1ccccc1" : 0.88

Briefly, Growth Rate measured for CCOC(=O)c1ccc(N2C(=O)C(O)=C(C(=O)c3ccc(OC)cc3)C2c2ccc(F)cc2)cc1 (stereo not given) : 0.54

Briefly, Growth Rate measured for "CC(=O)N1CCC(c2ccc(C(=O)NC(=N)N)cc2C(F)(F)F)CC1" : 0.01

Briefly, Growth Rate measured for COc1cc(F)ccc1-c1cc(Nc2cc(CS(C)(=N)=O)ccn2)ncc1F (stereo not given) : -1

Briefly, Growth Rate measured for "O=C(O)CCCCN(CCc1cc(F)ccc1OCc1ccc(-c2ccc(C(F)(F)F)cc2)cc1)Cc1ccc(C(=O)O)cc1" : 0.99

Briefly, Growth Rate measured for "COc1cc(-c2cncc(-c3cnn(C4CCNCC4)c3)c2)cc(OC)c1OC" : -1

Briefly, Growth Rate measured for CN(C1CCc2c(c3ccccc3n2CC(=O)O)C1)S(=O)(=O)c1ccc(F)cc1 (stereo not given) : 0.71

Briefly, Growth Rate measured for "O=c1[nH]c(CS[C@H]2CC[C@H](O)CC2)nc2cc(OCC3CC3)cc(F)c12" : -0.28

Briefly, Growth Rate measured for "COc1ccc(-c2coc3cc(O)cc(O)c3c2=O)cc1" : 0.85

###

- System: Fibroblast
- protocol_text: Incucyte cell viability with human fibroblast; further: unitless GR value; below 1 slowed growth and below 0 cell loss
- Type: toxicity, cell-based
- experimental_context: 18 h, 10 µM, compound concentration 10 uM, replicate number 1
observable: Growth Rate
Output spec: single numeric token, no unit.

Briefly, Growth Rate measured for "N#C/C(=C\c1ccc(O)c(O)c1)C(=O)OCCc1cccs1" : 1

Briefly, Growth Rate measured for CC(C)(C)C1CCc2c(sc(NC(=O)c3ccco3)c2C(=O)O)C1 (stereo unspecified) : -0.68

Briefly, Growth Rate measured for CC(C)(C)c1cnc(CSc2cnc(NC(=O)C3CCN(CC(=O)NCCOCCOCCOCCNc4cccc5c4C(=O)N(C4CCC(=O)NC4=O)C5=O)CC3)s2)o1 (stereo unspecified) : -0.02

Briefly, Growth Rate measured for "CN1CCCN(C(=O)c2cccc(-c3ccc(/C=C4/C(=O)Nc5ccc(Cl)cc54)o3)c2)CC1" : -0.74

Briefly, Growth Rate measured for "Cc1nc2cccnc2n2c(-c3cc([C@@]4(O)CCCOC4)ccc3Cl)nnc12" : 0.97

Briefly, Growth Rate measured for CC1CN(CC(=O)N2CC(C)(C)c3nc(CO)c(Cc4ccc(F)cc4)cc32)C(CN2CCOCC2C)CN1 (stereo unspecified) : 0.98

Briefly, Growth Rate measured for "O=C(O)c1ccc(-c2c[nH]c3ncc(-c4ccccc4)cc23)cc1C1CCCC1" : 0.91

Briefly, Growth Rate measured for "CSc1ccc(C[C@@H](C)C(=O)O)cc1Nc1nc(N2CC[C@H](N(C)C)C2)cc(C(F)F)c1C#N.O=C(O)C(F)(F)F" : 0.21

Briefly, Growth Rate measured for "COc1ccc(Br)cc1S(=O)(=O)NC(=O)/C=C/c1cc(Cl)ccc1Cc1ccc2ccccc2c1" : 0.99

Briefly, Growth Rate measured for "CC(C)(O)[C@H]1CC[C@H](Nc2ccc3ncc(-c4cccc(C(F)(F)F)c4)n3n2)CC1" : -0.46

Briefly, Growth Rate measured for "CC(C)Oc1ccc(-c2cnc3c(-c4ccnc5ccccc45)cnn3c2)cc1" : 0.49
